Experiment: Biodistribution of BMS administered as free BMS or nSSL-BMS
Conditions: C57Bl/6 Ola-Hsd, mouse, liver, iv, 20 mg/kg, BMS in liver, µg drug/g organ, infected mice, 20 mg/kg i.v. on day 6 p.i., 48 h post-injection
Parameter measured: concentration at 48 h (ng/g)
Reply with just the number (in ng/g).

Task: Return reported concentration at 48 h. Input compound: C[C@H]1C[C@H]2[C@@H]3CCC4=CC(=O)C=C[C@]4(C)[C@@]3(F)[C@@H](O)C[C@]2(C)[C@@]1(O)C(=O)COC(=O)CCC(=O)O [BMS, β-methasone hemisuccinate]
Output: 400
